- MEASURED TARGET: Kv1.3 (Homo sapiens)
- Sequence (P22001 whole entry): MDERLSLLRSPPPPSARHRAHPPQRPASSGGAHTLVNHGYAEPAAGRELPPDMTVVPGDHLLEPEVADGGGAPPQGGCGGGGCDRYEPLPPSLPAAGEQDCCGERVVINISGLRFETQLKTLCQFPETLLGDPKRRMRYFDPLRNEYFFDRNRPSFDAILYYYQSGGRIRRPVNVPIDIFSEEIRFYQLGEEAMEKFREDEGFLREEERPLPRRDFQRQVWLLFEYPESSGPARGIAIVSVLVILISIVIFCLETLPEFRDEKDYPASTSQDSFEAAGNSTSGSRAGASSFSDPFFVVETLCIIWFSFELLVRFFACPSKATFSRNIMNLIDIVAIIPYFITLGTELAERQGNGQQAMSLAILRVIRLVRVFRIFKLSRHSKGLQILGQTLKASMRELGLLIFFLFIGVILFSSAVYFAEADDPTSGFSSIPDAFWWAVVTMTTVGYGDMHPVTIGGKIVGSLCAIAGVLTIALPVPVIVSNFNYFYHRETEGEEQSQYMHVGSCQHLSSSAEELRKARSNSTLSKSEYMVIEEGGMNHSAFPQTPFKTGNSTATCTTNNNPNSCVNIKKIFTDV
- ASSAY SUMMARY: Electrophysiology: planar patch-clamp of Kv1.3 currents, IC50 from steady state current amplitude
- REPORTED CONDITIONS: Kv1.3 electrophysiology, results according to Method D1, read-out: IC50 (Kv1.3 ephys steady state)
pIC50: −log10 of the molar value.
TEST READOUT: pIC50

[[record]]
molecule = "O=C(CS(=O)(=O)c1ccccc1F)N(Cc1ccc(C(F)(F)F)nc1)C(c1ccc(OC(F)F)cc1)C1CC1 (centres unmarked) [Example 300]"
test_readout = "pIC50"
reading = "6.70 to 7.30"

[[record]]
molecule = "Cn1ccnc1CN(C(=O)C1CC1c1ccc(F)cc1)C(c1ccc(OC(F)F)cc1)C1CC1 (centres unmarked) [Example 187]"
test_readout = "pIC50"
reading = "6.00 to 6.70"

[[record]]
molecule = "C[C@@H](CC(=O)N(Cc1ccccn1)C1(c2cccc(Br)c2)CC1)c1ccc(F)cc1 (single isomer, unassigned) [Example 96]"
test_readout = "pIC50"
reading = "6.70 to 7.30"


Task: Suppose we examine the molecule CN1CC(C(c2ccc(F)cc2)N(Cc2ncccc2F)C(=O)C2CC2c2ccc(F)cc2)C1 (centres unmarked) [Example 156] ; what pIC50 value has been reported?
Output: 6.70 to 7.30

Task: Suppose we examine the molecule CCS(=O)(=O)c1ccc(C(C2CC2)N(Cc2ccc(F)cn2)C(=O)C2CC2c2ccc(F)cc2F)cc1 (centres unmarked) [Example 230] ; what pIC50 value has been reported?
Output: 6.70 to 7.30

Task: Suppose we examine the molecule CCS(=O)(=O)c1cccc(C(C2CC2)N(Cc2cccnn2)C(=O)C2CC2c2ccc(F)cc2)c1 (centres unmarked) [Example 223] ; what pIC50 value has been reported?
Output: 6.70 to 7.30

Task: Suppose we examine the molecule CC(c1ccc(S(C)(=O)=O)cc1)N(Cc1ccc(C(F)(F)F)nc1)C(=O)C(C)(C)S(=O)(=O)c1ccccc1 (centres unmarked) [Example 288] ; what pIC50 value has been reported?
Output: 5.70 to 6.00

Task: Suppose we examine the molecule O=C(CS(=O)(=O)c1ccccc1)N(Cc1ccc(C(F)(F)F)nc1)C(c1ccc(OC(F)F)cc1)C1CC1 (centres unmarked) [Example 301] ; what pIC50 value has been reported?
Output: 6.70 to 7.30

The values you see were collected from patent US9493451B2.
